All figures here come from ChEMBL document CHEMBL5252592.

- Test system: A549
- Assay comment: Antiproliferative activity against human A549 cells assessed as inhibition of cell growth
- Format: functional, cell-based
Kindly state IC50 for each of the entries shown.

COc1cc(Nc2cc(-c3cccc4c3OCO4)nc(N)n2)cc(OC)c1OC	> 10 µM
COc1cc(Nc2ccnc(-c3ccc4c(c3)OCO4)n2)cc(OC)c1OC	> 10 µM
COc1cc(Nc2cc(-c3ccc4c(c3)CCO4)ncn2)cc(OC)c1OC	> 10 µM
COc1cc(Nc2nccc(-c3ccc4sc5ccccc5c4c3)n2)cc(OC)c1OC	> 10 µM
COc1cc(Nc2cc(-c3ccc4c(c3)CCO4)nc(N)n2)cc(OC)c1OC	> 10 µM
COc1cc(Nc2cc(-c3ccc4cc[nH]c4c3)ncn2)cc(OC)c1OC	> 10 µM
COc1cc(Nc2ccnc(-c3ccc4occc4c3)n2)cc(OC)c1OC	> 10 µM
COc1cc(Nc2ccnc(-c3cc4ccccc4o3)n2)cc(OC)c1OC	> 10 µM

The following compounds each have a reported value; give each one's IC50.
1. COc1cc(Nc2cc(-c3ccc4c(c3)OCCO4)ncn2)cc(OC)c1OC
2. COc1cc(Nc2cc(-c3ccc4occc4c3)ncn2)cc(OC)c1OC

### Response
1: > 10 µM; 2: > 10 µM

----------
Kindly state IC50 for each of the entries shown.
- Tested on: A549
- Assay comment: Antiproliferative activity against human A549 cells assessed as inhibition of cell growth
- Format: functional, cell-based

Worked cases, answers included:
COc1cc(Nc2nccc(-c3csc4ccccc34)n2)cc(OC)c1OC	> 10 µM
COc1cc(Nc2cc(-c3csc4ccccc34)ncn2)cc(OC)c1OC	> 10 µM

# next compound below
### Prompt What does the record list as IC50 for COc1cc(Nc2cc(-c3ccc4c(c3)OCCO4)nc(N)n2)cc(OC)c1OC ?
### Response > 10 µM
